Just for reference, paper PMC6479946 is where these values come from.

Experiment: in vivo
Details: male, Sprague-Dawley, rat, in vivo, po, 40 mg/kg, AUC(0-∞) of HAR, rat plasma; oral HAR 40.0 mg/kg alone (HAR-M); n = 8, mean ± SD
property_label: AUC(0-inf)

Give the reported value of AUC(0-inf) for this record: COc1ccc2c(c1)[nH]c1c(C)nccc12 [HAR] 109 ng·h/mL

* * *

Assay: in vivo
Details: male, Sprague-Dawley, rat, in vivo, po, 40 mg/kg, AUC(0-t) of HAR, rat plasma; oral HAR 40.0 mg/kg alone (HAR-M); n = 8, mean ± SD
property_label: AUC(0-t) (ng·h/mL)
Write the value in ng·h/mL as a bare number.

Give the reported value of AUC(0-t) for this record: COc1ccc2c(c1)[nH]c1c(C)nccc12 100

* * *

Assay: in vivo
Conditions: male, Sprague-Dawley, rat, in vivo, po, 40 mg/kg, MRT of HAR, rat plasma; oral HAR 40.0 mg/kg + MEM 5.0 mg/kg (HAR-M + MEM); n = 8, mean ± SD
Method: The analytes were separated on an ACQUITY UPLC BEH C18 column (2.1 mm × 50 mm, 1.7 μm, Waters, Milford, USA). […] The flow rate was 0.3 mL/min. The column and sample-tray temperature were kept at 40 °C and 4 °C, respectively. The injection volume was 5.0 μL using a partial loop with needle over fill mode. […] All standard curves and quantitative data were processed by Agilent Mass Hunter Quantitative Analysis Workstation Software. […]
property_label: MRT (h)
Write the value in h as a bare number.

Give the reported value of MRT for this record: COc1ccc2c(c1)[nH]c1c(C)nccc12 3.28

* * *

Assay: in vivo
Settings: male, Sprague-Dawley, rat, in vivo, po, 80 mg/kg, AUC(0-t) of HAR, rat plasma; oral HAR 80.0 mg/kg + MEM 5.0 mg/kg (HAR-H + MEM); n = 8, mean ± SD
property_label: AUC(0-t) (ng·h/mL)
Write the value in ng·h/mL as a bare number.

Give the reported value of AUC(0-t) for this record: COc1ccc2c(c1)[nH]c1c(C)nccc12 [HAR] 1060

* * *

Assay: Pharmacokinetic study in rats after oral HAR and MEM alone and in combination (plasma, UPLC-MS/MS, non-compartmental)
Conditions: male, Sprague-Dawley, rat, plasma, po, 5 mg/kg, MRT of MEM, rat plasma; oral MEM 5.0 mg/kg alone (MEM group); n = 8, mean ± SD
property_label: MRT (h)
Write the value in h as a bare number.

Give the reported value of MRT for this record: CC12CC3CC(C)(C1)CC(N)(C3)C2 [MEM, 1-amino-3,5-dimethyladamantane, reference compound] 4.04

* * *

Assay: in vivo
Settings: male, Sprague-Dawley, rat, in vivo, po, 5 mg/kg, AUC(0-∞) of MEM, rat plasma; oral MEM 5.0 mg/kg + HAR 80.0 mg/kg (HAR-H + MEM); n = 8, mean ± SD
property_label: AUC(0-inf)
The reply should consist of the numeric value with the unit placed after it.

Give the reported value of AUC(0-inf) for this record: CC12CC3CC(C)(C1)CC(N)(C3)C2 [MEM, 1-amino-3,5-dimethyladamantane, reference compound] 781 ng·h/mL

* * *

Assay: Pharmacokinetic study in rats after oral HAR and MEM alone and in combination (plasma, UPLC-MS/MS, non-compartmental)
Details: male, Sprague-Dawley, rat, plasma, po, 5 mg/kg, AUC(0-t) of MEM, rat plasma; oral MEM 5.0 mg/kg + HAR 80.0 mg/kg (HAR-H + MEM); n = 8, mean ± SD
property_label: AUC(0-t)
The reply should consist of the numeric value with the unit placed after it.

Give the reported value of AUC(0-t) for this record: CC12CC3CC(C)(C1)CC(N)(C3)C2 [MEM, 1-amino-3,5-dimethyladamantane, reference compound] 603 ng·h/mL
